Recorded values, source paper PMC8162404.

# test target: S100B (Homo sapiens, UniProt P04271)
# Construct: made in house; host or cells: Escherichia coli BL21(DE3)
# Sequence (P04271 whole entry): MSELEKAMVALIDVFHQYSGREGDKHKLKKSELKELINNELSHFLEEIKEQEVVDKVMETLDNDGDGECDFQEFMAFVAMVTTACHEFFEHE
# protocol description: Pull-down assay with immobilized protein and LSM libraries
# Assay type: binding
# assay context: H12 library; 1:1 binding assumed; read-out: Surface mapping KD (apparent)
# Description: Pull-down assays with immobilized test proteins and foldameric LSM libraries were carried out. Proteins were equilibrated with LSM probes, and equilibrium bound fractions (FB) were determined from the unbound fractions measured by HPLC-MS methods. Hits were corrected with background binding of the resin. […] MS data analysis. […] Using these processing setups, all raw data files were reprocessed together and analyzed. […]
Parameter: Kd. Scope: all listed entries.
Kindly answer with a numeric value in µM, unit omitted.

Would you kindly share the measured Kd for CSCC[C@@H](CC(=O)N[C@H]1CCC[C@@H]1C(=O)N[C@H]1CCC[C@@H]1C(N)=O)NC(=O)[C@H]1CCC[C@@H]1NC(=O)[C@H]1CCC[C@@H]1NC(=O)C[C@@H](NC(=O)[C@H]1CCC[C@@H]1NC(=O)[C@H]1CCC[C@@H]1N)C(C)C ? 303

Return reported Kd; argument: NCCCC[C@@H](CC(=O)N[C@H]1CCC[C@@H]1C(=O)N[C@H]1CCC[C@@H]1C(=O)N[C@@H](CC(N)=O)CC(=O)N[C@H]1CCC[C@@H]1C(=O)N[C@H]1CCC[C@@H]1C(N)=O)NC(=O)[C@H]1CCC[C@@H]1NC(=O)[C@H]1CCC[C@@H]1N 274

What value of Kd has been recorded for this entry: CC(C)[C@@H](CC(=O)N[C@H]1CCC[C@@H]1C(=O)N[C@H]1CCC[C@@H]1C(=O)N[C@H](CC(=O)N[C@H]1CCC[C@@H]1C(=O)N[C@H]1CCC[C@@H]1C(N)=O)Cc1ccccc1)NC(=O)[C@H]1CCC[C@@H]1NC(=O)[C@H]1CCC[C@@H]1N 45

Reported Kd for N=C(N)NCCC[C@@H](CC(=O)N[C@H]1CCC[C@@H]1C(=O)N[C@H]1CCC[C@@H]1C(N)=O)NC(=O)[C@H]1CCC[C@@H]1NC(=O)[C@H]1CCC[C@@H]1NC(=O)C[C@H](Cc1c[nH]c2ccccc12)NC(=O)[C@H]1CCC[C@@H]1NC(=O)[C@H]1CCC[C@@H]1N : what is it? 15

###

# test target: S100B (Homo sapiens)
# Construct: made in house; host or cells: Escherichia coli BL21(DE3)
# protocol description: Pull-down assay with immobilized protein and LSM libraries
# Assay type: binding
# assay context: H14 probes selected for validation
quantity: Affinity class of probe (high, medium, low) in pull-down

Worked examples follow.
{"columns": ["smiles record", "test value"],
 "data": [
  ["CSCC[C@@H](CC(=O)N[C@H]1CCCC[C@@H]1C(N)=O)NC(=O)[C@H]1CCCC[C@@H]1NC(=O)[C@H]1CCCC[C@@H]1NC(=O)C[C@@H](NC(=O)[C@H]1CCCC[C@@H]1N)[C@@H](C)O", "low"],
  ["CC[C@H](C)[C@@H](CC(=O)N[C@H]1CCCC[C@@H]1C(=O)N[C@H]1CCCC[C@@H]1C(=O)N[C@H](CC(=O)N[C@H]1CCCC[C@@H]1C(N)=O)Cc1ccccc1)NC(=O)[C@H]1CCCC[C@@H]1N", "high"],
  ["CC(C)C[C@@H](CC(=O)N[C@H]1CCCC[C@@H]1C(N)=O)NC(=O)[C@H]1CCCC[C@@H]1NC(=O)[C@H]1CCCC[C@@H]1NC(=O)C[C@@H](NC(=O)[C@H]1CCCC[C@@H]1N)C(C)C", "medium"],
  ["NC(=O)[C@H]1CCCC[C@@H]1NC(=O)C[C@H](Cc1ccccc1)NC(=O)[C@H]1CCCC[C@@H]1NC(=O)[C@H]1CCCC[C@@H]1NC(=O)C[C@H](Cc1ccc(O)cc1)NC(=O)[C@H]1CCCC[C@@H]1N", "medium"]
]}

Pending molecule:
Quick check: Affinity class of probe (high, medium, low) in pull-down on S100B (Homo sapiens), item N=C(N)NCCC[C@@H](CC(=O)N[C@H]1CCCC[C@@H]1C(N)=O)NC(=O)[C@H]1CCCC[C@@H]1NC(=O)[C@H]1CCCC[C@@H]1NC(=O)C[C@H](CCCNC(=N)N)NC(=O)[C@H]1CCCC[C@@H]1N ? high

###

In this section we review reported Kd values for a set of compounds.
# test target: Gal-1 (Homo sapiens, UniProt P09382)
# Construct: made in house; host or cells: E. coli BL21(DE3)
# Sequence (P09382 whole entry): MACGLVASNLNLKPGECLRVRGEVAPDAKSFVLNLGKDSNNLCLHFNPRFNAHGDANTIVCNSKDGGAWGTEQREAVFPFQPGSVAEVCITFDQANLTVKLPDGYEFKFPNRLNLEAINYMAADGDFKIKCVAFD
# protocol description: Competition pull-down with lactose
# Format: binding
# assay context: H14 library; lactose 10 mM; read-out: Surface mapping KD (apparent), competition

{"columns": ["smiles record", "test target", "Kd"],
 "data": [
  ["NCCCC[C@@H](CC(=O)N[C@H]1CCCC[C@@H]1C(N)=O)NC(=O)[C@H]1CCCC[C@@H]1NC(=O)[C@H]1CCCC[C@@H]1NC(=O)C[C@H](Cc1ccccc1)NC(=O)[C@H]1CCCC[C@@H]1N", "Gal-1 (Homo sapiens, UniProt P09382)", "153 µM"]
]}

Kd lookup needed for CSCC[C@@H](CC(=O)N[C@H]1CCCC[C@@H]1C(=O)N[C@H]1CCCC[C@@H]1C(=O)N[C@H](CC(=O)N[C@H]1CCCC[C@@H]1C(N)=O)Cc1ccccc1)NC(=O)[C@H]1CCCC[C@@H]1N , thanks. 181 µM

For NC(=O)[C@H]1CCCC[C@@H]1NC(=O)C[C@H](Cc1ccccc1)NC(=O)[C@H]1CCCC[C@@H]1NC(=O)[C@H]1CCCC[C@@H]1NC(=O)C[C@H](Cc1ccccc1)NC(=O)[C@H]1CCCC[C@@H]1N , what is its reported Kd? 108 µM

###

# test target: Gal-1 (Homo sapiens)
# Construct: made in house; host or cells: E. coli BL21(DE3)
# protocol description: Pull-down assay with immobilized protein and LSM libraries
# Type: binding
# assay context: H14 library; 1:1 binding assumed; read-out: Surface mapping KD (apparent)
quantity: Kd (µM)
Only the number, expressed in µM, is required.

{"columns": ["smiles record", "Kd (µM)"],
 "data": [
  ["CC[C@H](C)[C@@H](CC(=O)N[C@H]1CCCC[C@@H]1C(N)=O)NC(=O)[C@H]1CCCC[C@@H]1NC(=O)[C@H]1CCCC[C@@H]1NC(=O)C[C@H](CC(N)=O)NC(=O)[C@H]1CCCC[C@@H]1N", 258],
  ["CSCC[C@@H](CC(=O)N[C@H]1CCCC[C@@H]1C(N)=O)NC(=O)[C@H]1CCCC[C@@H]1NC(=O)[C@H]1CCCC[C@@H]1NC(=O)C[C@H](CC(C)C)NC(=O)[C@H]1CCCC[C@@H]1N", 138],
  ["C[C@@H](O)[C@@H](CC(=O)N[C@H]1CCCC[C@@H]1C(=O)N[C@H]1CCCC[C@@H]1C(=O)N[C@@H](CCC(N)=O)CC(=O)N[C@H]1CCCC[C@@H]1C(N)=O)NC(=O)[C@H]1CCCC[C@@H]1N", 369]
]}

Endpoint output: Kd of CC[C@H](C)[C@@H](CC(=O)N[C@H]1CCCC[C@@H]1C(N)=O)NC(=O)[C@H]1CCCC[C@@H]1NC(=O)[C@H]1CCCC[C@@H]1NC(=O)C[C@H](CO)NC(=O)[C@H]1CCCC[C@@H]1N . Value? 336

GET /values?readout=Kd&item= NC(=O)[C@H]1CCCC[C@@H]1NC(=O)C[C@H](Cc1ccc(O)cc1)NC(=O)[C@H]1CCCC[C@@H]1NC(=O)[C@H]1CCCC[C@@H]1NC(=O)C[C@H](Cc1ccc(O)cc1)NC(=O)[C@H]1CCCC[C@@H]1N 375

###

# test target: S100A4 (Homo sapiens)
# Construct: made in house; host or cells: Escherichia coli BL21(DE3)
# Sequence (P26447 whole entry): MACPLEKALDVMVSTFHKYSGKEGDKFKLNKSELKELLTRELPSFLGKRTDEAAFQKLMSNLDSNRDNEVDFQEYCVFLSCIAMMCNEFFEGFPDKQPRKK
# protocol description: Pull-down assay with immobilized protein and LSM libraries
# Type: binding
# assay context: H12 library; 1:1 binding assumed; read-out: Surface mapping KD (apparent)
pKd values, listed per item
Conceptually, pKd converts a concentration in mol/L into minus its log10.

Field request: pKd | item: CSCC[C@@H](CC(=O)N[C@H]1CCC[C@@H]1C(=O)N[C@H]1CCC[C@@H]1C(N)=O)NC(=O)[C@H]1CCC[C@@H]1NC(=O)[C@H]1CCC[C@@H]1NC(=O)C[C@H](Cc1ccccc1)NC(=O)[C@H]1CCC[C@@H]1NC(=O)[C@H]1CCC[C@@H]1N 3.71

Look up pKd for this compound: NC(=O)[C@H]1CCC[C@@H]1NC(=O)[C@H]1CCC[C@@H]1NC(=O)C[C@H](Cc1c[nH]c2ccccc12)NC(=O)[C@H]1CCC[C@@H]1NC(=O)[C@H]1CCC[C@@H]1NC(=O)C[C@H](Cc1ccccc1)NC(=O)[C@H]1CCC[C@@H]1NC(=O)[C@H]1CCC[C@@H]1N 4.12

Bench note: what pKd did CSCC[C@@H](CC(=O)N[C@H]1CCC[C@@H]1C(=O)N[C@H]1CCC[C@@H]1C(N)=O)NC(=O)[C@H]1CCC[C@@H]1NC(=O)[C@H]1CCC[C@@H]1NC(=O)C[C@H](CCCNC(=N)N)NC(=O)[C@H]1CCC[C@@H]1NC(=O)[C@H]1CCC[C@@H]1N show? 3.47

Consider the compound CC(C)C[C@@H](CC(=O)N[C@H]1CCC[C@@H]1C(=O)N[C@H]1CCC[C@@H]1C(N)=O)NC(=O)[C@H]1CCC[C@@H]1NC(=O)[C@H]1CCC[C@@H]1NC(=O)C[C@H](CCCNC(=N)N)NC(=O)[C@H]1CCC[C@@H]1NC(=O)[C@H]1CCC[C@@H]1N and give its measured pKd. 3.61

Quick one: pKd of N=C(N)NCCC[C@@H](CC(=O)N[C@H]1CCC[C@@H]1C(=O)N[C@H]1CCC[C@@H]1C(=O)N[C@H](CC(=O)N[C@H]1CCC[C@@H]1C(=O)N[C@H]1CCC[C@@H]1C(N)=O)Cc1ccccc1)NC(=O)[C@H]1CCC[C@@H]1NC(=O)[C@H]1CCC[C@@H]1N ? 3.85

Please look up its pKd: CC(C)C[C@@H](CC(=O)N[C@H]1CCC[C@@H]1C(=O)N[C@H]1CCC[C@@H]1C(N)=O)NC(=O)[C@H]1CCC[C@@H]1NC(=O)[C@H]1CCC[C@@H]1NC(=O)C[C@H](Cc1c[nH]c2ccccc12)NC(=O)[C@H]1CCC[C@@H]1NC(=O)[C@H]1CCC[C@@H]1N 3.98

Please give the measured pKd for this compound: CSCC[C@@H](CC(=O)N[C@H]1CCC[C@@H]1C(=O)N[C@H]1CCC[C@@H]1C(N)=O)NC(=O)[C@H]1CCC[C@@H]1NC(=O)[C@H]1CCC[C@@H]1NC(=O)C[C@H](Cc1c[nH]c2ccccc12)NC(=O)[C@H]1CCC[C@@H]1NC(=O)[C@H]1CCC[C@@H]1N 4.01

For the compound shown here, CC[C@H](C)[C@@H](CC(=O)N[C@H]1CCC[C@@H]1C(=O)N[C@H]1CCC[C@@H]1C(=O)N[C@H](CC(=O)N[C@H]1CCC[C@@H]1C(=O)N[C@H]1CCC[C@@H]1C(N)=O)CC(C)C)NC(=O)[C@H]1CCC[C@@H]1NC(=O)[C@H]1CCC[C@@H]1N , give the reported pKd. 4.10
